- TEST_TARGET: PKMYT1 enzyme (Homo sapiens)
- Construct: purchased Thermo Scientific A33387
- Sequence (Q99640 1-499): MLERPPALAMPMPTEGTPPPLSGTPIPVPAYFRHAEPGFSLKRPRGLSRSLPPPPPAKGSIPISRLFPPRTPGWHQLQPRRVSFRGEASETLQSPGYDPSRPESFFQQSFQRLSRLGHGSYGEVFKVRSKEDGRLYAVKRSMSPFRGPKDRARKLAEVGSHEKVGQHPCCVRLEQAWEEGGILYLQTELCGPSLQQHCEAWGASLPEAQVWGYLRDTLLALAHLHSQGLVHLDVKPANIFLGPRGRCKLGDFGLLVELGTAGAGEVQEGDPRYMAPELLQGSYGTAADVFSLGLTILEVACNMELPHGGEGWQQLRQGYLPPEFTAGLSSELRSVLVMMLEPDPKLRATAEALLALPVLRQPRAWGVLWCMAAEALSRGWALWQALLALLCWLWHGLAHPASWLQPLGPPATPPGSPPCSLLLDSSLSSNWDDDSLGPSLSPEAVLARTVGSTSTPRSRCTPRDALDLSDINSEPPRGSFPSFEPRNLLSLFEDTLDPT
- PROCEDURE_DETAILS: PKMYT1 enzyme inhibition activity, ADP-GLO method
- Assay type: biochemical
- PARTICULARS: PKMYT1 enzyme 10 nM, ATP 5 µM, 37°C 90 minutes; read-out: ADP-GLO IC50

>  <INPUT_SMILES>
Cc1ccc(O)c(C)c1-n1c(N)c(C(N)=O)c2cnc(C#N)nc21

>  <TEST_TARGET>
PKMYT1 enzyme (Homo sapiens)

>  <IC50>
24.3 nM

$$$$
>  <INPUT_SMILES>
Cc1ccc(O)c(C)c1-n1c(N)c(C(N)=O)c2cnc(CCC3CC3)nc21

>  <TEST_TARGET>
PKMYT1 enzyme (Homo sapiens)

>  <IC50>
5.47 nM

$$$$
>  <INPUT_SMILES>
Cc1ccc(O)c(C)c1-n1c(N)c(C(N)=O)c2cnc(N3CCC(F)(F)CC3)nc21

>  <TEST_TARGET>
PKMYT1 enzyme (Homo sapiens)

>  <IC50>
3.09 nM

$$$$
>  <INPUT_SMILES>
Cc1ccc(O)c(C)c1-n1c(N)c(C(N)=O)c2cnc(NC3CC3)nc21

>  <TEST_TARGET>
PKMYT1 enzyme (Homo sapiens)

>  <IC50>
5.28 nM

$$$$

* * *

Below, each entry is listed with its recorded IC50.
- TEST_TARGET: PKMYT1 enzyme (Homo sapiens)
- Construct: purchased Thermo Scientific A33387
- Sequence (Q99640 1-499): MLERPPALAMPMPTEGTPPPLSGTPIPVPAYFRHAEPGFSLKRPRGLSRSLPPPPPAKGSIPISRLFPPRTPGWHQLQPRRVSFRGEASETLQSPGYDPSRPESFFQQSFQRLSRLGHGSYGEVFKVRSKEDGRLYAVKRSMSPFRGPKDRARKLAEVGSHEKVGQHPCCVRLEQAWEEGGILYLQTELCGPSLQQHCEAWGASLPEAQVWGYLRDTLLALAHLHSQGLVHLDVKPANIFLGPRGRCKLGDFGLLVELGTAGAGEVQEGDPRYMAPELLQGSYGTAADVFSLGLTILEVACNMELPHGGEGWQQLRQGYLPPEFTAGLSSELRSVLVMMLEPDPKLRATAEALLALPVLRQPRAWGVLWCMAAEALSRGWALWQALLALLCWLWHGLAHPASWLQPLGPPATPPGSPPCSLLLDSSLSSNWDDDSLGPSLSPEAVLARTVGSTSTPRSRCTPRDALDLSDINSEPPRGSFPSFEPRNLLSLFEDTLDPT
- PROCEDURE_DETAILS: PKMYT1 enzyme inhibition activity, ADP-GLO method
- Type: biochemical
- PARTICULARS: PKMYT1 enzyme 10 nM, ATP 5 µM, 37°C 90 minutes; read-out: ADP-GLO IC50

>  <COMPOUND>
C=Cc1ncc2c(C(N)=O)c(N)n(-c3c(C)ccc(O)c3C)c2n1

>  <UNITS_SYMBOL>
nM

>  <IC50>
10.1

$$$$
>  <COMPOUND>
Cc1cc(F)c(O)c(C)c1-n1c(N)c(C(N)=O)c2cc(N3CCC3)c(C)nc21 (racemic) [Example 173]

>  <UNITS_SYMBOL>
nM

>  <IC50>
7.68

$$$$
>  <COMPOUND>
[2H]C([2H])([2H])c1nc2c(cc1C(F)(F)F)c(C(N)=O)c(N)n2-c1c(C)cc(F)c(O)c1C (racemic) [Example 194]

>  <UNITS_SYMBOL>
nM

>  <IC50>
6.36

$$$$
